# Test system: SN12C renal
# TEST_DETAILS: NCI-60 one-dose screen, 48 h
# CONDITION_LABEL: 10 µM unless noted
About 83,000 compounds went through this panel and 20% of them were active in at least one assay; those are over-represented in the sample as a whole. Activity calls are given as the source filed them. How the source made its calls: active means growth percent below 10; inactive means the rest.
Pick from Yes for active, No for inactive when you respond.

C[C@H]1[C@H]2C3=CC[C@@H]4[C@@]5(C)C/C(=C/c6ccco6)C(=O)C(C)(C)[C@@H]5CC[C@@]4(C)[C@]3(C)CC[C@@]2(C(=O)N2CCOCC2)CC[C@@H]1C; No

Hello, I am checking results. What call was entered for CCCCC[C@H]1CC=C2C(=O)C=C[C@@H]2CC=CCCCC(=O)O[C@@H](CCCCC)CC=C2C(=O)C=C[C@@H]2CC=CCCCC(=O)O[C@@H](CCCCC)CC=C2C(=O)C=C[C@@H]2CC=CCCCC(=O)O1 ?
Yes

Hello, I am checking results. What call was entered for Cc1cccc(C)c1NC(=O)CSC(=S)N1CCN(CCOCCO)CC1 ?
No
